# MEASURED ON: T1, P7mSN
# T1 chain: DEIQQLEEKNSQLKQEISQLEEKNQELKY
# EXPERIMENT: two-hybrid library CCNG1;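 also: natural log of median RNA to DNA barcode read ratio; higher means stronger binding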
READOUT LABEL: interaction score

// worked examples, interaction score included
[[record]]
binder = "DKNSQLKEENSQLEEKIEQLKEKIQELKY [P10mSN]"
readout_label = "interaction score"
readout_value = 0.521

[[record]]
binder = "DEIQQLEEKNSQLKQEISQLEEKNQELKY [P7mSN]"
readout_label = "interaction score"
readout_value = -0.219

[[record]]
binder = "DEIRQLEQENSQLERENQRLEQEIYQLER [P1mSN]"
readout_label = "interaction score"
readout_value = -1.01

[[record]]
binder = "DKNEQLKEKISELKEKIEQLKEENQSLEY [P12mSN]"
readout_label = "interaction score"
readout_value = -0.807

[[record]]
binder = "DKNSELKEEIQQLEEENQQLEEKISELKY [P6mSN]"
readout_label = "interaction score"
readout_value = -0.951


A = DEIQQLEEEISQLEQKNSELKEKNQELKY [P3mSN]
B = DKISQLKEKIQQLKQENQQLEEENSQLEY [P4mSN]
C = DENQSLEQEISQLEQEIQQLEQKNSELKY [P11mSN]
Arrange items by their interaction score values in increasing order. Output spec: a listing of the labels in the requested order.
C, B, A

a = DKIEELKEKNSQLKEKNEELKQKIYELKE [P2mSN]
b = DENSQLEEKISQLKQKNSELKEEIQQLEY [P5mSN]
# argmax over interaction score for candidates a and b Reply with the label of the item you choose.
a
